Target: Human DYRK1B (Homo sapiens)
Construct: purchased Invitrogen PR8350B (former PV4649)
Sequence (Q9Y463 whole entry): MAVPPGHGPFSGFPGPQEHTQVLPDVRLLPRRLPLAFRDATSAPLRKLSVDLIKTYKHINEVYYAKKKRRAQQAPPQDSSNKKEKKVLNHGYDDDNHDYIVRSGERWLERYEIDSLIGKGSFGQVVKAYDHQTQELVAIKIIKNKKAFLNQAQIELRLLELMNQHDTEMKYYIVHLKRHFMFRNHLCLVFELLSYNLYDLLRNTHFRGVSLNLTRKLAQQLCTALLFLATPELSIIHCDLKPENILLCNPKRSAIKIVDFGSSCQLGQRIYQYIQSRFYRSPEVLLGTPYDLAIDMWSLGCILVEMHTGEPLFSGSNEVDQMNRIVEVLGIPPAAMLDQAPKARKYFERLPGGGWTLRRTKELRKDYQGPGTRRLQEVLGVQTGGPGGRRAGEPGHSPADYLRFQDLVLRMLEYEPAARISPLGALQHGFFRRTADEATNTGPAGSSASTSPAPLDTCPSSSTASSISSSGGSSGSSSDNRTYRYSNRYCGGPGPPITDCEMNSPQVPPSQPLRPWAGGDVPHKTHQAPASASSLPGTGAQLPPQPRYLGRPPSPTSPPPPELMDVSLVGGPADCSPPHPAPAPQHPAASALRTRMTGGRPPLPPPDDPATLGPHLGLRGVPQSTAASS
Assay: DYRK1B Kinase TR-FRET (IMAP-Tb) Assay
Type: biochemical
Details: TR-FRET (IMAP-Tb); ATP 70 μM; 37° C. for 60 minutes; averages of multiple runs; read-out: Enzyme IC50 (μM) DYRK1B
Source text: DYRK1B Kinase TR-FRET (IMAP-Tb) Assay Assay Principle The kinase TR-FRET (IMAP-Tb) assay uses a fluorescence labeled substrate peptide in the kinase reaction. Upon phosphorylation by the kinase, phosphopeptide is produced, which will be detected by the binding solution provided in IMAP TR-FRET binding kit. […] Due to the long lifetime of terbium (Tb) fluorescence the detection can be run in time resolved mode, which virtually eliminates fluorescence interference from assay components or compounds. […]
Counter-ions that a name gives are not always drawn.
PARAMETER_MEASURED: IC50 (µM)
Give your result in µM as a bare value.

IN: Sample NCCC(Nc1cccc(-c2n[nH]c3nc(NCCN4CCOCC4)ncc23)c1)c1ccccc1 (stereo not drawn) [Example 73, hydrochloride] — what was its IC50?
OUT: 9.59

We next turn to a different compound, shown below.
IN: I would be grateful if you could share the reported IC50 for Clc1ccccc1CNc1nccc(-c2n[nH]c3nc(NCCN4CCOCC4)ncc23)n1 [Example 63, hydrochloride] .
OUT: 0.0671
